assay: NCI Yeast Anticancer Drug Screen. Data for the cln2 rad14 strain (AID 165);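 note: 0% = growth equal to vehicle treated cultures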; conditions: S. cerevisiae cln2 rad14 strain, at 50.0 µM (retest, dose inferred, filed as 5.0), hits give high values
The panel holds about 79,000 compounds, 15% with a hit somewhere; the sample as a whole holds those more often.
Form field: growth inhibition (one value per entry).
Respond numerically; units are % and should not be typed.

A selection of reference data follows.
>  <compound>
Cn1c2c(c3ccccc31)CCN1C[C@@H]3CCCC[C@H]3C[C@@H]21

>  <growth inhibition (%)>
-6

$$$$
>  <compound>
CC(C)/C(Cl)=N\OC(=O)Nc1ccc(S(N)(=O)=O)cc1

>  <growth inhibition (%)>
33

$$$$
>  <compound>
COc1ccc2nc3cc([N+](=O)[O-])ccc3c(NNc3ccc([N+](=O)[O-])cc3)c2c1

>  <growth inhibition (%)>
-15

$$$$
>  <compound>
CCC1(c2ccc(N3C(=O)c4ccccc4C3=O)cc2)CCC(=O)NC1=O (stereo unspecified)

>  <growth inhibition (%)>
3

$$$$
>  <compound>
O=C(/C=C/C=C/c1ccccc1)c1ccco1

>  <growth inhibition (%)>
28

$$$$

The recorded growth inhibition for CN(C)CC1CC/C(=C\c2ccc(O)cc2)C1=O (stereo unspecified) is 53
